- testedOn: T1, HLA-A*02:01 (peptide-receptive MHC class I monomer after UV-ligand exchange) (human)
- T1 construct: Monomers made with a UV-sensitive peptide that is cleaved by UV and exchanged for the test peptide; captured on streptavidin plates; also called MHC molecules
- procedureDetails: UV-ligand exchange + anti-b2m ELISA; exchange yield grade: + >=10%, ++ >=20%, +++ >=50, ++++ >=75%
measuredQuantity: peptide exchange yield

> print(dat)
                                      binder   obsvalue
 1  KMLGLTVSL [peptide KMLGLTVSL (SEQ ID NO: 30)]  50 to 75%
 2  KLPSFLANV [peptide KLPSFLANV (SEQ ID NO: 118)]  50 to 75%
 3  VLLNINGIDL [peptide VLLNINGIDL (SEQ ID NO: 58)]      ≥ 75%
 4  ALYSKGILL [peptide ALYSKGILL (SEQ ID NO: 95)]      ≥ 75%
 5  YMLEHVITL [peptide YMLEHVITL (SEQ ID NO: 121)]  50 to 75%
 6  AAAPGEALHTA [peptide AAAPGEALHTA (SEQ ID NO: 9)]  20 to 50%
 7  SLMLVTVEL [peptide SLMLVTVEL (SEQ ID NO: 17)]  50 to 75%
 8  LLQNNLPAV [peptide LLQNNLPAV (SEQ ID NO: 87)]      ≥ 75%
 9  LLLPGVIKTV [peptide LLLPGVIKTV (SEQ ID NO: 112)]  50 to 75%
10  ALRETVVEV [peptide ALRETVVEV (SEQ ID NO: 93)]  50 to 75%
11  ALGEISVSV [peptide ALGEISVSV (SEQ ID NO: 18)]  50 to 75%
12  LVFEGIMEV [peptide LVFEGIMEV (SEQ ID NO: 34)]  50 to 75%
13  FMGDVFINV [peptide FMGDVFINV (SEQ ID NO: 35)]      ≥ 75%
14  VMLPIGAVVMV [peptide VMLPIGAVVMV (SEQ ID NO: 62)]  50 to 75%
15  GLLEDERALQL [peptide GLLEDERALQL (SEQ ID NO: 42)]  50 to 75%
16  GLISSLNEI [peptide GLISSLNEI (SEQ ID NO: 38)]      ≥ 75%
